Recorded pIC50 for molecules tested on Aldo-keto reductase family 1 member B10 (Homo sapiens, UniProt O60218), drawn from a number of studies.
Schema: pIC50 number; meaning minus log10 of the concentration expressed in molar units.

Previously resolved entries follow.
> print(dat)
                                 mol.smiles  recorded.result
1            O=C(O)Cc1ccccc1Nc1c(Cl)cccc1Cl             5.72
2  COc1ccc2c(C(=S)N(C)CC(=O)O)cccc2c1C(F)(F)F             7.94

Pending molecule:
Give Aldo-keto reductase family 1 member B10 (Homo sapiens, UniProt O60218) pIC50 for CC1(C)CC[C@]2(CO)CC[C@]3(C)C(=CC[C@@H]4[C@@]5(C)CC[C@H](O)C(C)(C)[C@@H]5CC[C@]43C)[C@@H]2C1 4.52

###

Recorded pIC50 for molecules tested on UniProt:O60218, drawn from a number of studies.
Schema: pIC50 number; meaning minus log10 of the concentration expressed in molar units.

> print(dat)
                                   molecule  observed.property  recorded.result
1  COc1ccc(OC)c(/N=c2\oc3cc(O)ccc3cc2C(=O)Nc2ccccn2)c1              pIC50             7.66
2  CCC(C(=O)O)c1ccc(-c2cc(OC)cc(OC)c2)c(C(F)(F)F)c1 (racemic)              pIC50             5.29
3               Cc1cccc(Nc2ccccc2C(=O)O)c1C              pIC50             5.80
4  CC1(C)CC[C@]2(C(=O)O)CC[C@]3(C)C(=CC[C@@H]4[C@@]5(C)C[C@@H](O)[C@H](O)C(C)(C)[C@@H]5CC[C@]43C)[C@@H]2C1              pIC50             6.20
5       O=C1NC(=O)[C@@]2(CCOc3ccc(F)cc32)N1              pIC50             5.02
6  O=C1CC2(C(=O)N1)C(=O)N(Cc1ccc(Br)cc1F)C(=O)c1ccc(F)cc12 (stereo not drawn)              pIC50             6.13
7  CC(/C=C1\SC(=S)N(CC(=O)O)C1=O)=C\c1ccccc1              pIC50             6.48

Give UniProt:O60218 pIC50 for C[C@H]1[C@H](C)CC[C@]2(C(=O)O)CC[C@]3(C)C(=CC[C@@H]4[C@@]5(C)CC[C@H](O)C(C)(C)[C@@H]5CC[C@]43C)[C@H]12 5.40
